test system: chloasma model of guinea pig; test: Chloasma model of guinea pig: tyrosine, MDA content and SOD activity of skin tissue; format: in vivo; settings: 0.25% cream on the skin once a day, 30 days
We begin with a simple list: items and their reported MDA.
Numbers only here, please. The scale is nmol/mL.

Some solved entries appear below for comparison.
COMPOUND	TESTED ON	UNIT SYMBOL	MDA
CCN1CCC[C@@H](N(C(=O)c2ccc(-n3nnc4cccnc43)cc2)c2ncccc2Cl)C1 [CLY-2]	chloasma model of guinea pig	nmol/mL	10.86
NC1CCCC(N(C(=O)c2ccc(-n3nnc4cccnc43)cc2)c2ncccc2Cl)C1 (stereo not shown) [CLY-11]	chloasma model of guinea pig	nmol/mL	11.62

// lookup MDA for COC1CCCC(N(C(=O)c2ccc(-n3nnc4cccnc43)cc2)c2ncccc2Cl)C1 (stereo not shown) [CLY-5]
10.65

// lookup MDA for O=C(c1ccc(-c2ccccc2Cl)cc1)N(c1ncccc1Cl)[C@@H]1CCCNC1 [CLY-36]
11.83

// lookup MDA for Nc1ccccc1-c1ccc(C(=O)N(c2ncccc2Cl)[C@@H]2CCCNC2)cc1 [CLY-39]
10.81

// lookup MDA for O=C(c1ccc(-n2nnc3cccnc32)cc1)N(c1ncccc1Cl)[C@@H]1CCNC1 [CLY-8]
10.59

// lookup MDA for O=C(c1ccc(-n2nnc3cccnc32)cc1)N(c1ncccc1Cl)C1CCCC(O)C1 (stereo not shown) [CLY-4]
11.62

// lookup MDA for CNC1CCCC(N(C(=O)c2ccc(-n3nnc4cccnc43)cc2)c2ncccc2Cl)C1 (stereo not shown) [CLY-3]
11.57

// lookup MDA for O=C(c1ccc(-c2ccccc2-c2nnn[nH]2)cc1)N(c1ncccc1Cl)[C@@H]1CCCNC1 [CLY-19]
11.75

// lookup MDA for CN1CCC[C@@H](N(C(=O)c2ccc(-n3nnc4cccnc43)cc2)c2ncccc2Cl)C1 [CLY-1]
11.32

---

tested on: rat hair loss model; experiment: Rat hair loss (androgenic alopecia) model: hair length; format: in vivo, Wistar rats; conditions: rat AGA model; external 5% tincture twice a day
Marks after values point to notes of the source that are not given here.
We begin with a simple list: items and their reported 60-day hair length.

MOLECULE	60-day hair length
Nc1cc(N2CCCCC2)nc(N)[n+]1[O-] [Positive control group, minoxidil, reference compound]	16.2* mm
O=C(c1ccc(-c2ccccc2Cl)cc1)N(c1ncccc1Cl)[C@@H]1CCCNC1 [CLY-36]	17.1* mm
O=C(c1ccc(-n2nnc3cccnc32)cc1)N(c1ncccc1Cl)C1CCCC(O)C1 (stereo not shown) [CLY-4]	16.1* mm

Kindly consider the entry below.
// lookup 60-day hair length for COC1CCCC(N(C(=O)c2ccc(-n3nnc4cccnc43)cc2)c2ncccc2Cl)C1 (stereo not shown) [CLY-5]
18.9* mm

---

system: rat hair loss model; experiment: Rat hair loss (androgenic alopecia) model: hair length; format: in vivo, Wistar rats; settings: rat AGA model; external 5% tincture twice a day
Marks after values point to notes of the source that are not given here.
We begin with a simple list: items and their reported 45-day hair length.

// lookup 45-day hair length for O=C(c1ccc(-n2nnc3cccnc32)cc1)N(c1ncccc1Cl)[C@@H]1CCNC1
15.7* mm

// lookup 45-day hair length for O=C(c1ccc(-c2ccccc2Cl)cc1)N(c1ncccc1Cl)[C@@H]1CCCNC1
13.81* mm

// lookup 45-day hair length for COC1CCCC(N(C(=O)c2ccc(-n3nnc4cccnc43)cc2)c2ncccc2Cl)C1 (stereo not drawn)
15.5* mm

---

system: rabbit ear acne model; test: Rabbit ear acne model: epidermal thickness, hair follicle area, sebaceous gland diameter; assay type: in vivo, New Zealand rabbits; details: rabbit right ear; external use (0.25% CLY cream; positive: Differin)
Marks after values point to notes of the source that are not given here.
OUTCOME MEASURE: hair follicle area

COMPOUND	hair follicle area
O=C(c1ccc(-n2nnc3cccnc32)cc1)N(c1ncccc1Cl)C1CCCC(O)C1 (stereo not drawn)	0.3254 ± 0.1126* mm^2
CNC1CCCC(N(C(=O)c2ccc(-n3nnc4cccnc43)cc2)c2ncccc2Cl)C1 (stereo not drawn)	0.2923 ± 0.0987* mm^2

// lookup hair follicle area for O=C(c1ccc(-n2nnc3cccnc32)cc1)N(c1ncccc1Cl)[C@@H]1CCNC1
0.2115 ± 0.0832* mm^2

---

We begin with a simple list: items and their reported 45-day hair length.
tested on: rat hair loss model; assay: Rat hair loss (androgenic alopecia) model: hair length; assay type: in vivo, Wistar rats; settings: rat AGA model; external 5% tincture twice a day
Marks after values point to notes of the source that are not given here.

Some solved entries appear below for comparison.
COMPOUND	OUTCOME MEASURE	RESULT
O=C(c1ccc(-n2nnc3cccnc32)cc1)N(c1ncccc1Cl)C1CCCC(O)C1 (centres unmarked)	45-day hair length	12.26* mm
Nc1cc(N2CCCCC2)nc(N)[n+]1[O-] [Positive control group, minoxidil, reference compound]	45-day hair length	13.1* mm
Nc1ccccc1-c1ccc(C(=O)N(c2ncccc2Cl)[C@@H]2CCCNC2)cc1	45-day hair length	14.8* mm
CCN1CCC[C@@H](N(C(=O)c2ccc(-n3nnc4cccnc43)cc2)c2ncccc2Cl)C1	45-day hair length	15.3* mm

// lookup 45-day hair length for CNC1CCCC(N(C(=O)c2ccc(-n3nnc4cccnc43)cc2)c2ncccc2Cl)C1 (centres unmarked)
12.45* mm

// lookup 45-day hair length for NC1CCCC(N(C(=O)c2ccc(-n3nnc4cccnc43)cc2)c2ncccc2Cl)C1 (centres unmarked)
13.89* mm

// lookup 45-day hair length for O=C(c1ccc(-c2ccccc2-c2nnn[nH]2)cc1)N(c1ncccc1Cl)[C@@H]1CCCNC1
14.02* mm

// lookup 45-day hair length for CN1CCC[C@@H](N(C(=O)c2ccc(-n3nnc4cccnc43)cc2)c2ncccc2Cl)C1
14.2* mm

---

tested on: rat hair loss model; assay: Rat hair loss (androgenic alopecia) model: hair length; format: in vivo, Wistar rats; settings: rat AGA model; intravenous injection 2 mg/kg·d
Marks after values point to notes of the source that are not given here.
We begin with a simple list: items and their reported 30-day hair length.

COMPOUND	RESULT
O=C(c1ccc(-n2nnc3cccnc32)cc1)N(c1ncccc1Cl)[C@@H]1CCNC1 [CLY-8]	9.5* mm
CCN1CCC[C@@H](N(C(=O)c2ccc(-n3nnc4cccnc43)cc2)c2ncccc2Cl)C1 [CLY-2]	10.3* mm
O=C(c1ccc(-c2ccccc2Cl)cc1)N(c1ncccc1Cl)[C@@H]1CCCNC1 [CLY-36]	9.2* mm
CN1CCC[C@@H](N(C(=O)c2ccc(-n3nnc4cccnc43)cc2)c2ncccc2Cl)C1 [CLY-1]	9.6* mm
NC1CCCC(N(C(=O)c2ccc(-n3nnc4cccnc43)cc2)c2ncccc2Cl)C1 (stereo not shown) [CLY-11]	9.3* mm

GET /values?readout=30-day hair length&system=rat hair loss model&item= O=C(c1ccc(-n2nnc3cccnc32)cc1)N(c1ncccc1Cl)C1CCCC(O)C1 (stereo not shown) [CLY-4]
8.6* mm

GET /values?readout=30-day hair length&system=rat hair loss model&item= CNC1CCCC(N(C(=O)c2ccc(-n3nnc4cccnc43)cc2)c2ncccc2Cl)C1 (stereo not shown) [CLY-3]
8.9* mm

GET /values?readout=30-day hair length&system=rat hair loss model&item= Nc1ccccc1-c1ccc(C(=O)N(c2ncccc2Cl)[C@@H]2CCCNC2)cc1 [CLY-39]
9.9* mm

GET /values?readout=30-day hair length&system=rat hair loss model&item= COC1CCCC(N(C(=O)c2ccc(-n3nnc4cccnc43)cc2)c2ncccc2Cl)C1 (stereo not shown) [CLY-5]
9.3* mm

GET /values?readout=30-day hair length&system=rat hair loss model&item= O=C(c1ccc(-c2ccccc2-c2nnn[nH]2)cc1)N(c1ncccc1Cl)[C@@H]1CCCNC1 [CLY-19]
9.7* mm

---

tested on: skin melanocytes; test: Chloasma model of guinea pig: pathomorphological observation of skin melanocytes; assay type: in vivo; set-up: scale not given here; conditions: 0.25% cream once a day, 30 days
OUTCOME MEASURE: Average gray level (melanocyte depth)
Please respond with just the number, no unit label.

Some solved entries appear below for comparison.
MOLECULE	OUTCOME MEASURE	QUANTITATIVE RESULT
O=C(c1ccc(-c2ccccc2Cl)cc1)N(c1ncccc1Cl)[C@@H]1CCCNC1	Average gray level (melanocyte depth)	0.47
NC1CCCC(N(C(=O)c2ccc(-n3nnc4cccnc43)cc2)c2ncccc2Cl)C1 (stereo not shown)	Average gray level (melanocyte depth)	0.46
O=C(c1ccc(-n2nnc3cccnc32)cc1)N(c1ncccc1Cl)C1CCCC(O)C1 (stereo not shown)	Average gray level (melanocyte depth)	0.58
CNC1CCCC(N(C(=O)c2ccc(-n3nnc4cccnc43)cc2)c2ncccc2Cl)C1 (stereo not shown)	Average gray level (melanocyte depth)	0.52
Nc1ccccc1-c1ccc(C(=O)N(c2ncccc2Cl)[C@@H]2CCCNC2)cc1	Average gray level (melanocyte depth)	0.47
CCN1CCC[C@@H](N(C(=O)c2ccc(-n3nnc4cccnc43)cc2)c2ncccc2Cl)C1	Average gray level (melanocyte depth)	0.41
O=C(c1ccc(-n2nnc3cccnc32)cc1)N(c1ncccc1Cl)[C@@H]1CCNC1	Average gray level (melanocyte depth)	0.39
COC1CCCC(N(C(=O)c2ccc(-n3nnc4cccnc43)cc2)c2ncccc2Cl)C1 (stereo not shown)	Average gray level (melanocyte depth)	0.40

// lookup Average gray level (melanocyte depth) for O=C(c1ccc(-c2ccccc2-c2nnn[nH]2)cc1)N(c1ncccc1Cl)[C@@H]1CCCNC1
0.45

// lookup Average gray level (melanocyte depth) for CN1CCC[C@@H](N(C(=O)c2ccc(-n3nnc4cccnc43)cc2)c2ncccc2Cl)C1
0.43
